FYI, the data here is from patent US9353090B2.

# TEST: physchem
# EXPERIMENTAL_CONTEXT: pH 6.8, aqueous buffer, kinetic from dmso stock, Solubility (pH 6.8)
READOUT_KIND: solubility at 24 h (µg/mL)
Your answer is read as µg/mL, so omit the unit and give the number.

CO[C@@H]1CN(c2nc(-c3cccc(Cl)c3OCc3ccc4c(c3)[C@@H](C)CN(C3CCOCC3)CC4)cs2)CC[C@@H]1C(=O)O | 76.8

Given the molecule CO[C@@H]1CN(c2cccc(-c3cccc(C)c3OCc3ccc4c(c3C)CCN(C3COC3)CC4)n2)CC[C@H]1C(=O)O , what is its reported solubility at 24 h? 66.5

Given the molecule Cc1cc(COc2c(C)cccc2-c2csc(N3CC[C@@]4(C(=O)O)C[C@H]4C3)n2)c(C)c2c1CN(C1CCOC1)CC2 (stereo partly drawn) , what is its reported solubility at 24 h? 27
